# System: TFEB
# protocolText: TFEB nuclear translocation assay
# Assay type: cell-based
# setupConditions: Homo sapiens; HeLa wt or HeLa TRPML1 KO cells, treated for 2 hrs; ratio of nuclear to ring-region TFEB intensity
# Method: For the TFEB nuclear translocation assay, HeLa wt or HeLa TRPML1 KO cells were plated at 2700 cells/well into black-walled, 384-well Cell carrier Ultra tissue culture treated plates in complete media and incubated overnight. The next day, cells are treated for 2 hrs with compounds and incubated at 37° C. […] Images were quantified using PerkinElmer Harmony software, briefly: apply flatfield correction (basic/advanced) for input images. […]
valueKind: EC50

Query: Complete the entry with EC50 for CC1(C)COc2ccc(S(=O)(=O)N3CC4(CCCCC4)c4ccccc43)cc21
Reply: ≤ 2 µM

Query: Name the recorded EC50 of the compound listed here: CN(C)S(=O)(=O)c1ccc(S(=O)(=O)N2CC3(CCCC3)c3ccncc32)cc1
Reply: 2.01 to 8 µM

Query: Supply recorded EC50 for CN(C)S(=O)(=O)c1ccc(S(=O)(=O)N2CC3(CCCO3)c3ccccc32)cc1 (centres unmarked) here.
Reply: ≤ 2 µM

Query: Provide one value: measured EC50 of CN(C)S(=O)(=O)c1ccc(S(=O)(=O)N2CC3(CCCCC3)n3nccc32)cc1
Reply: ≥ 10 µM

Query: Using the record for O=S(=O)(c1cc(C2OCCO2)cs1)N1CC2(CCCC2)c2ccccc21 , state its measured EC50.
Reply: ≥ 10 µM

Query: Name the recorded EC50 of the item O=C(Nc1ccc2c(c1)OCCO2)N1CCC2(CC1)CN(S(=O)(=O)c1ccc(C(F)F)cc1)c1ccccc12 in your answer.
Reply: ≥ 10 µM

Query: Output measured EC50 for this item: CC(C)(O)c1ccc(S(=O)(=O)N2CC3(CCCC3)c3ccccc32)cc1
Reply: ≥ 10 µM

Query: Let me know recorded EC50 for CN(C)S(=O)(=O)c1ccc(S(=O)(=O)N2CC3(CCCC3)c3cnccc32)cc1 , thanks.
Reply: ≥ 10 µM

====

# Test system: TFEB
# protocolText: TFEB nuclear translocation assay
# Type: cell-based
# setupConditions: Homo sapiens; HeLa wt or HeLa TRPML1 KO cells, treated for 2 hrs; ratio of nuclear to ring-region TFEB intensity
# Method: For the TFEB nuclear translocation assay, HeLa wt or HeLa TRPML1 KO cells were plated at 2700 cells/well into black-walled, 384-well Cell carrier Ultra tissue culture treated plates in complete media and incubated overnight. The next day, cells are treated for 2 hrs with compounds and incubated at 37° C. […] Images were quantified using PerkinElmer Harmony software, briefly: apply flatfield correction (basic/advanced) for input images. […]
pEC50: −log10 of the molar value.
valueKind: pEC50

Query: // Input: O=C(OCc1ccccc1)N1CCC2(CC1)CN(S(=O)(=O)c1ccc(C(F)F)cc1)c1ccccc12 . Output its pEC50 only.
Reply: ≥ 5.70

Query: Annotate the compound CN(C)S(=O)(=O)c1ccc(S(=O)(=O)N2CC3(CCCC3)c3cccnc32)cc1 with its measured pEC50.
Reply: ≤ 5.00

Query: Item CN1CCC2(CC1)CN(S(=O)(=O)Cc1ccccc1)c1ccccc12 : provide pEC50
Reply: ≤ 5.00

Query: Output pEC50 of CN(C)S(=O)(=O)c1ccc(S(=O)(=O)N2CC3(CCCC3)c3ccccc32)cc1
Reply: ≥ 5.70

Query: Identify pEC50 associated with the compound CN(C)S(=O)(=O)c1ccc(S(=O)(=O)N2CC3(CN(CC4CCOCC4)C3)c3ccccc32)cc1
Reply: 5.10 to 5.70

Query: Please give measured pEC50 of the following entry: O=C(OCc1ccccc1)N1CCC2(CC1)CN(S(=O)(=O)c1ccc(C(F)F)cc1)c1c(F)cccc12
Reply: ≥ 5.70

Query: For the compound CC(C)c1ccc(S(=O)(=O)N2CC3(CCCC3)c3ccccc32)cc1 , give its reported pEC50.
Reply: 5.00 to 5.10

Query: Hello, please tell me recorded pEC50 for this one: CN(C)S(=O)(=O)c1ccc(S(=O)(=O)N2CC3(CCCC3)c3c(F)cccc32)cc1
Reply: ≥ 5.70
